TEST METHOD NOTES: Cytotoxicity against human H1299 cells assessed as cell growth at 10 uM after 48 hrs by MTT assay
Type: functional
TEST CONTEXT: NCI-H1299, 48 h, read-out: Activity
Could you please report measured growth at 10 µM for the items listed next?
The answer is to be given in %; state only the numeric part.

### Prompt Query (compound): "COC(=O)[C@H](COC(C)(C)C)NCC(=O)Nc1cccc2c1C(=O)c1c(NC(=O)CN[C@@H](COC(C)(C)C)C(=O)OC)cccc1C2=O" ; field requested: growth at 10 µM
### Response 128

### Prompt Same read-out for O=C1c2c(O)ccc(O)c2C(=O)c2c(NCCNCCO)ccc(NCCNCCO)c21 [MITOXANTRONE] ?
### Response 0

### Prompt Same read-out for "CCN(C)CCC(=O)Nc1cccc2c1C(=O)c1c(NC(=O)CCN(C)CC)cccc1C2=O" ?
### Response 23

### Prompt Same read-out for "CN(C)CC(=O)Nc1cccc2c1C(=O)c1c(NC(=O)CN(C)C)cccc1C2=O" ?
### Response 61

###

TEST METHOD NOTES: Cytotoxicity against human H1299 cells assessed as cell growth at 10 uM after 48 hrs by MTT assay
Assay type: functional
TEST CONTEXT: NCI-H1299, 48 h, read-out: Activity
MEASURED PROPERTY: growth at 10 µM (%)
The answer is to be given in %; state only the numeric part.

### Prompt Query (compound): "CC(C)CNCCC(=O)Nc1cccc2c1C(=O)c1c(NC(=O)CCNCC(C)C)cccc1C2=O" ; field requested: growth at 10 µM
### Response 4

### Prompt Same read-out for "COC(=O)[C@H](NCC(=O)Nc1cccc2c1C(=O)c1c(NC(=O)CN[C@@H](C(=O)OC)C(C)C)cccc1C2=O)C(C)C" ?
### Response 80

### Prompt Same read-out for "COC(=O)[C@H](CC(C)C)NCC(=O)Nc1cccc2c1C(=O)c1c(NC(=O)CN[C@@H](CC(C)C)C(=O)OC)cccc1C2=O" ?
### Response 102

### Prompt Same read-out for COc1cccc2c1C(=O)c1c(O)c3c(c(O)c1C2=O)C[C@@](O)(C(=O)CO)C[C@@H]3O[C@H]1C[C@H](N)[C@H](O)[C@H](C)O1 [DOXORUBICIN] ?
### Response 0

###

TEST METHOD NOTES: Cytotoxicity against human H1299 cells assessed as cell growth at 10 uM after 48 hrs by MTT assay
Assay type: functional
TEST CONTEXT: NCI-H1299, 48 h, read-out: Activity
MEASURED PROPERTY: growth at 10 µM (%)
The answer is to be given in %; state only the numeric part.

### Prompt Query (compound): "CN(C)CCCNCCC(=O)Nc1cccc2c1C(=O)c1c(NC(=O)CCNCCCN(C)C)cccc1C2=O" ; field requested: growth at 10 µM
### Response 105

### Prompt Same read-out for "COC(=O)[C@@H](C)NCC(=O)Nc1cccc2c1C(=O)c1c(NC(=O)CN[C@H](C)C(=O)OC)cccc1C2=O" ?
### Response 50

### Prompt Same read-out for "COC(=O)[C@@H](NCC(=O)Nc1cccc2c1C(=O)c1c(NC(=O)CN[C@H](C(=O)OC)C(C)C)cccc1C2=O)C(C)C" ?
### Response 90

### Prompt Same read-out for "CCCN(C)CC(=O)Nc1cccc2c1C(=O)c1c(NC(=O)CN(C)CCC)cccc1C2=O" ?
### Response 108

### Prompt Same read-out for "COC(=O)CNCC(=O)Nc1cccc2c1C(=O)c1c(NC(=O)CNCC(=O)OC)cccc1C2=O" ?
### Response 86
